tested on: NCI-H322M lung; experiment: NCI-60 one-dose screen, 48 h; details: 10 µM unless noted
This is part of a sample that, as a whole, favours compounds with a hit. Of some 83,000 tested, about 20% had one in any assay. The source made the active and inactive calls. Rule for the calls: active = growth percent below 10; inactive = the rest.
Could you please pick one outcome from this set? active, inactive

Example cases with answers are listed next.
Please let me know the test result on file for O=C1CCC(C(=O)N/N=C/c2ccc([N+](=O)[O-])cc2)N1 (centres undefined) .
inactive

Request: `COc1cc2c(cc1OC)CC[N+](CCC[N+](C)(C)C)=C2`
inactive

Request: CC1OC(C(=O)N2CCN(CCO)CC2)CC1COC1CCCCC1 (centres undefined)
inactive

Request: `CN1CCN(Cc2ccc(NC(=O)c3cncc(C#Cc4cnc(N)c5ccc(C#N)cc45)c3)cc2C(F)(F)F)CC1`
inactive

Request: `O=C1CCc2c(sc3[nH]c(=S)n(-c4cc(C(F)(F)F)cc(C(F)(F)F)c4)c(=O)c23)C1`
active

Request: `CN(C)CCOc1nc2c3cc([N+](=O)[O-])ccc3nn2c2ccccc12`
inactive

Request: `Oc1cccc(-c2nc(-c3n[nH]c(=S)n3-c3ccccc3)cc3c2[nH]c2ccccc23)c1`
inactive

Request: CN(Cc1ccccc1)c1nc(Cl)c(C2CC(c3ccc(Cl)cc3)=NN2c2cc(Cl)cc(Cl)c2)s1 (centres undefined)
inactive

Request: `Cn1cc(-c2nc(-c3c[nH]c4c(Cl)nccc34)cs2)c2ccccc21`
inactive

Request: COc1cc2c(cc1-c1c(C)noc1C)ncc1nc(C3CCOCC3)n(C3CCC(OC(F)F)CC3)c12 (centres undefined)
inactive

New cases:
Please let me know the test result on file for `O=C(Nc1ncc(Cc2cc(C(F)(F)F)ccc2Cl)s1)C(=S)N1CCOCC1` .
inactive

Request: `C=C(C)[C@@H]1CC[C@]2(COCCCNCCCN)CC[C@]3(C)[C@H](CC[C@@H]4[C@@]5(C)CC[C@H](OCCCN)C(C)(C)[C@@H]5CC[C@]43C)[C@@H]12`
inactive

Request: `Cc1nn(-c2ccccc2)c(Oc2ccccc2)c1/C=N/NC(=O)Cn1c(=O)sc2ccccc21`
inactive

Request: `COc1cc(/C=N/NC(=O)c2ccc3nc(-c4ccc(Cl)cc4)[nH]c3c2)cc(OC)c1OC`
inactive

Request: `COc1ccc(CNc2c3ccccc3nc3ccccc23)cc1OC`
inactive
